target: human PPARdelta (Homo sapiens, UniProt Q03181); construct: amino acids S139-Y441; assay: Cellular PPARdelta assay (luciferase reporter, stably transfected HEK cell line); conditions: GR-GAL4-humanPPARdelta-LBD
Sequence (Q03181 139-441): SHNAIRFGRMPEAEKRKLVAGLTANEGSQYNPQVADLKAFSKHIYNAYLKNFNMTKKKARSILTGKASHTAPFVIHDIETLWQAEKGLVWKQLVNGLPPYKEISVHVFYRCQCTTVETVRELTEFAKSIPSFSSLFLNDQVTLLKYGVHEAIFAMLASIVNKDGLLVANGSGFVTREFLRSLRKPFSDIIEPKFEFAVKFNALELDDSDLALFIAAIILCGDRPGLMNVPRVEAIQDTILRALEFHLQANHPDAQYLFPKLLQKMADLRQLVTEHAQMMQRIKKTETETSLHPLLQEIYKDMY
Provide the recorded EC50 for the entries that follow.
Answer in nM, number only, no unit symbol.

Output reported EC50 of the compound CCOc1cc(C(F)(F)F)ccc1C(=O)NCC(C)c1ccc(S(=O)(=O)Nc2nnc(C(C)C)s2)cc1 (single isomer, unassigned) [Example 43a] on human PPARdelta (Homo sapiens, UniProt Q03181).
40

Output reported EC50 of the compound `Cc1ccc(Cl)cc1C(=O)NCCc1ccc(S(=O)(=O)Nc2nnc(-c3ccccc3)s2)cc1` on human PPARdelta (Homo sapiens, UniProt Q03181).
3610

Output reported EC50 of the compound `CC(C)c1nnc(NS(=O)(=O)c2ccc(CNC(=O)c3ccc(C(F)(F)F)cc3)cc2)s1` on human PPARdelta (Homo sapiens, UniProt Q03181).
760

Output reported EC50 of the compound CCOc1cc(C(F)(F)F)ccc1C(=O)NCC(C)c1ccc(S(=O)(=O)Nc2nnc(C(C)C)s2)cc1 (racemic) [Example 43] on human PPARdelta (Homo sapiens, UniProt Q03181).
20

====

biological target: human PPARdelta (Homo sapiens, UniProt Q03181); construct: amino acids S139-Y441; test: Cellular PPARdelta assay (luciferase reporter, stably transfected HEK cell line); settings: GR-GAL4-humanPPARdelta-LBD
property: pEC50
Here pEC50 is given on a logarithmic scale as minus log10 of the concentration in mol/L.

Using known records, supply pEC50 for `Cc1cc(Br)c(C(=O)NCCc2ccc(S(=O)(=O)Nc3nnc(C(C)C)s3)cc2)s1`
7.22

Using known records, supply pEC50 for `CC(C)(C)c1nnc(NS(=O)(=O)c2ccc(CCNC(=O)c3cc(Cl)ccc3Cl)cc2)s1`
5.55

Using known records, supply pEC50 for `COc1cc(C(F)(F)F)ccc1C(=O)NCCc1ccc(S(=O)(=O)Nc2nnc(C(C)C)s2)cc1`
6.96

Using known records, supply pEC50 for `COc1ccc(C(C)(C)C)cc1C(=O)NCCc1ccc(S(=O)(=O)Nc2nnc(C(C)C)s2)cc1`
6.36

Using known records, supply pEC50 for CCOc1cc(C(F)(F)F)ccc1C(=O)NCC(CC)c1ccc(S(=O)(=O)Nc2nnc(C(C)C)s2)cc1 (single isomer, unassigned) [Example 44b]
8.00

Using known records, supply pEC50 for `CCOc1cc(C(F)(F)F)ccc1C(=O)NCCc1ccc(S(=O)(=O)Nc2nnc(C(C)C)s2)cc1`
7.34

Using known records, supply pEC50 for `COc1ccc(C(=O)NCCc2ccc(S(=O)(=O)Nc3nnc(C(C)C)s3)cc2)c(OC)n1`
5.96

Using known records, supply pEC50 for CCOc1cc(C(F)(F)F)ccc1C(=O)NCC(CC)c1ccc(S(=O)(=O)Nc2nnc(C(C)C)s2)cc1 (single isomer, unassigned) [Example 44a]
7.40

Using known records, supply pEC50 for CCOc1cc(C(F)(F)F)ccc1C(=O)NCC(C)c1ccc(S(=O)(=O)Nc2nnc(C(C)C)s2)cc1 (single isomer, unassigned) [Example 43b]
7.70

====

target: human PPARgamma (Homo sapiens); construct: amino acids I152-Y475; test: Cellular PPARgamma assay (luciferase reporter, transiently transfected HEK cells); settings: GAL4-humanPPARgammaLBD
Sequence (P37231 210-505 limits assumed): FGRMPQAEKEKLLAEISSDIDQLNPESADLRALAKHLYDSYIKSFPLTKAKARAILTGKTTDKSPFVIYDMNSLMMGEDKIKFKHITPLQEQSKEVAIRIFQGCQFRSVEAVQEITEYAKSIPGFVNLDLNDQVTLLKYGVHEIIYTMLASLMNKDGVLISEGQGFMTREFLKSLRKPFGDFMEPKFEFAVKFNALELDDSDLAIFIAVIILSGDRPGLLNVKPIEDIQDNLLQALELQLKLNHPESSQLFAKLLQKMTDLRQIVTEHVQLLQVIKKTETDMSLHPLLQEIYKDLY
property: EC50
Quick note: number first, unit second.

Using known records, supply EC50 for CCOc1cc(C(F)(F)F)ccc1C(=O)NCC(CC)c1ccc(S(=O)(=O)Nc2nnc(C(C)C)s2)cc1 (single isomer, unassigned) [Example 44b]
10 nM

Using known records, supply EC50 for CC(C)(C)c1nnc(NS(=O)(=O)c2ccc(CCNC(=O)c3cc(Cl)ccc3Cl)cc2)s1 [Example 35]
270 nM

Using known records, supply EC50 for COc1cc(C(F)(F)F)ccc1C(=O)NCCc1ccc(S(=O)(=O)Nc2nnc(C(C)C)s2)cc1 [Example 1]
380 nM

Using known records, supply EC50 for CCOc1cc(C(F)(F)F)ccc1C(=O)NCC(C)c1ccc(S(=O)(=O)Nc2nnc(C(C)C)s2)cc1 (racemic) [Example 43]
90 nM

Using known records, supply EC50 for CCOc1cc(C(F)(F)F)ccc1C(=O)NCC(C)c1ccc(S(=O)(=O)Nc2nnc(C(C)C)s2)cc1 (single isomer, unassigned) [Example 43a]
70 nM

Using known records, supply EC50 for COc1ccc(C(C)(C)C)cc1C(=O)NCCc1ccc(S(=O)(=O)Nc2nnc(C(C)C)s2)cc1 [Example 2]
180 nM

Using known records, supply EC50 for Cc1ccc(Cl)cc1C(=O)NCCc1ccc(S(=O)(=O)Nc2nnc(-c3ccccc3)s2)cc1 [Example 32]
4870 nM

Using known records, supply EC50 for Cc1cc(Br)c(C(=O)NCCc2ccc(S(=O)(=O)Nc3nnc(C(C)C)s3)cc2)s1 [Example 47]
1870 nM

Using known records, supply EC50 for CC(C)c1nnc(NS(=O)(=O)c2ccc(CNC(=O)c3ccc(C(F)(F)F)cc3)cc2)s1 [Example 24]
1530 nM

Using known records, supply EC50 for COc1ccc(C(=O)NCCc2ccc(S(=O)(=O)Nc3nnc(C(C)C)s3)cc2)c(OC)n1 [Example 5]
1110 nM

Using known records, supply EC50 for CCOc1cc(C(F)(F)F)ccc1C(=O)NCC(CC)c1ccc(S(=O)(=O)Nc2nnc(C(C)C)s2)cc1 (single isomer, unassigned) [Example 44a]
30 nM

Using known records, supply EC50 for CCOc1cc(C(F)(F)F)ccc1C(=O)NCC(C)c1ccc(S(=O)(=O)Nc2nnc(C(C)C)s2)cc1 (single isomer, unassigned) [Example 43b]
70 nM
